The following binders are shown together with reported TOP blocking (%) values.
- system_name: T1, hFc tagged human LAG3 ECD recombinant protein (human, UniProt P18627 23-450)
- T1 construct: range 23-450; also called biotin labelled hFc tagged human LAG3 ECD; not shown: human IgG Fc tag
- T1 sequence (looked up): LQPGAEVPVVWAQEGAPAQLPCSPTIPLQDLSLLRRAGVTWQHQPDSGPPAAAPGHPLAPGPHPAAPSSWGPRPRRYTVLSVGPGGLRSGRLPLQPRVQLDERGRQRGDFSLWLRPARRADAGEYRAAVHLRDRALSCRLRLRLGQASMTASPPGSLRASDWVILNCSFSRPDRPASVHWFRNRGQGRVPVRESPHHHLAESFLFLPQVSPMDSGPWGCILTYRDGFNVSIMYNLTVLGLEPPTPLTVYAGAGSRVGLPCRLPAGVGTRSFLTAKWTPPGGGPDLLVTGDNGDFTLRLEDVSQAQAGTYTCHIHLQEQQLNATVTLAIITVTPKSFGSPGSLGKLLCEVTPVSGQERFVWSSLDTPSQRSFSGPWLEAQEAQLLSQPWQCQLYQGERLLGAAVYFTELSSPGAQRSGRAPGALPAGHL
- measurement_notes: competitive FACS: hFc-LAG3 ECD binding to Raji cells (MHC II)
attribute_measured: TOP blocking (%)

INSERT INTO results (binder, quantitative_readout) VALUES
  ('Antibody 024 (antibody, V domains shown, mouse hybridoma antibody) VH: EVQLQQSGPELVKPGASVKISCKASGYTFTDYYMNWVKQSHGKRLEWIGDIDPNNGGTSYNQKFKGKATLTVDKSSSSAYMDLRSLTSEDSAVYYCARAGSYYYGSSYVEYFDVWGTGTTVTVSS VL: DIQMTQSPASLSASVGETVTITCRASGNIHNYLAWYQQKQGASPQLLVYNAKTLADGVPSRFSGSGSGTEFSLKINSLQPEDFGNYYCQHFWNTPYTFGGGTKLEIK', 81),
  ('Antibody 047 (antibody, V domains shown, mouse hybridoma antibody) VH: QVQLQQSGAELARPGASVKLSCKASGYSFTSYGVNWVKQRTGQGLEWIGEIYPRSGNTYYNERFGDKATLTADKSSSTAYMEIRSLTSEDSAVYFCARGGTYDGYYYAMDYWGQGTSVTVSS VL: DIVLTQSPASLAVSLGQRATISCRASESVDNFGSSFMHWYQQKPGQAPKLLIYRASNLESGIPARFSGSGSRTDFTLTINPVETDDVATYYCQQVNKDPRTFGGGTKLEIK', 82.7),
  ('Antibody 023 (antibody, V domains shown, mouse hybridoma antibody) VH: QIQLVQSGPVLKKPGETVKISCKASGYTFTESPMNWVKQAPGRGFKWMGMIYTDTGEPTYAEEFKGRFAFSLETSASTAYLQINNLKSEDTATYFCVSDYGSILYWYFDVWGTGTTVTVSS VL: DIVMTQSHKFMSTSVGDRVSITCKASQDVSTAVAWYQQTPGQSPKLLIYSASYRYTGVPDRFTGSGSGTDFTFTISSVQAEDLAVYYCQQHYNSPPTFGAGTKLELK', 84.2);
